Data origin, for the record: paper PMC6804295

- Experimental System: UniProtKB P42345

{"columns": ["Molecule", "IC50"],
 "data": [
  ["c1ccc(C2=NN(c3nc(N4CCOCC4)c4sccc4n3)[C@@H](c3ccccc3)C2)cc1 (stereo in doubt) [Compound 15a]", "> 50 µM"]
]}

* * *

Metric Name: melting point

{"columns": ["Molecule", "Metric Name", "Value"],
 "data": [
  ["Brc1ccc(C2=NN(c3nc(N4CCOCC4)c4c5c(sc4n3)CCCC5)C(c3ccccc3)C2)cc1 (stereo not drawn) [Compound 21f]", "melting point", "257 to 259 °C"],
  ["Fc1ccc(C2=NN(c3nc(N4CCOCC4)c4sccc4n3)C(c3ccc(F)cc3)C2)cc1 (stereo not drawn) [Compound 15c]", "melting point", "254.7 to 255.4 °C"],
  ["c1ccc(C2=NN(c3nc(N4CCOCC4)c4sccc4n3)[C@@H](c3ccccc3)C2)cc1 (stereo in doubt) [Compound 15a]", "melting point", "131.2 to 132.5 °C"],
  ["Cc1ccc(C2CC(c3ccc(Br)cc3)=NN2c2nc(N3CCOCC3)c3c4c(sc3n2)CCCC4)cc1 (stereo not drawn) [Compound 21b]", "melting point", "243 to 244 °C"],
  ["COc1ccc(C2CC(c3ccc(F)cc3)=NN2c2nc(N3CCOCC3)c3c4c(sc3n2)CCCC4)cc1 (stereo not drawn) [Compound 21d]", "melting point", "189 to 193 °C"],
  ["c1ccc(C2=NN(c3nc(N4CCOCC4)c4c5c(sc4n3)CCCC5)C(c3ccccc3)C2)cc1 (stereo not drawn) [Compound 21c]", "melting point", "212 to 213 °C"],
  ["Fc1ccc(C2=NN(c3nc(N4CCOCC4)c4ccsc4n3)C(c3ccc(F)cc3)C2)cc1 (stereo not drawn) [Compound 9c]", "melting point", "225 to 227 °C"],
  ["COc1ccc(C2CC(c3ccc(Cl)c(Cl)c3)=NN2c2nc(N3CCOCC3)c3c4c(sc3n2)CCCC4)cc1 (stereo not drawn) [Compound 21a]", "melting point", "252 to 253 °C"],
  ["Fc1ccc(C2CC(c3ccc(Br)cc3)=NN2c2nc(N3CCOCC3)c3c4c(sc3n2)CCCC4)cc1 (stereo not drawn) [Compound 21e]", "melting point", "272 to 273 °C"],
  ["Clc1ccc(C2=NN(c3nc(N4CCOCC4)c4c5c(sc4n3)CCCC5)C(c3ccccc3)C2)cc1Cl (stereo not drawn) [Compound 21h]", "melting point", "293 to 294 °C"],
  ["c1ccc(C2=NN(c3nc(N4CCOCC4)c4ccsc4n3)[C@@H](c3ccccc3)C2)cc1 (stereo in doubt) [Compound 9a]", "melting point", "202 to 205 °C"],
  ["Clc1ccc(C2=NN(c3nc(N4CCOCC4)c4c5c(sc4n3)CCCC5)C(c3ccc(Br)cc3)C2)cc1Cl (stereo not drawn) [Compound 21g]", "melting point", "231 to 234 °C"]
]}
